# Test Protocol: BET inhibitor-based combinations targeting novel dependencies in MECOM-rearranged (r) AML: HNT-34 cell line (AID 2202234); further: nearly all actives have a fitted effect of over 35% in size
# Condition Parameters: HNT-34 AML viability, CellTiter-Glo luminescence, 48 h; series mostly up to 46 µM
Records with an inconclusive call do not appear. Calls of active or inactive are those of the source. The call rests on the fitted dose curve; in most records, active means well fitted inhibition curve with a large enough effect; inconclusive means small, poorly fitted or top-dose-only effect; inactive means no such curve, though single readings can be large or run the other way.
Classes used: T for active, F for inactive

N#Cc1ccc(NC(=O)Nc2ccccc2Br)c2n[nH]nc12 | F
NC1=N[C@H]2[C@H](CS[C@H]2CCCCC(=O)O)N1 | F
CCN1CCCC1CNC(=O)c1cc(S(=O)(=O)CC)c(N)cc1OC (stereo not given) | F
O=C(O)CCNc1cc(N2CCc3ccccc3CC2)nc(-c2ccccn2)n1 | F
CC(C)C[C@H](NC(=O)[C@@H](NC(=O)c1cccc(-c2ccccc2)n1)[C@@H](C)O)B(O)O | T
COc1cc2c(Nc3ccc(NC(=O)c4ccccc4)cc3)ncnc2cc1OCCCN1CCOCC1 | T
CCCCCCCCCCCCc1ccc(S(=O)(=O)Nc2nncs2)cc1 | F
C#C[C@]1(O)CC[C@H]2[C@@H]3CCc4cc(OC)ccc4[C@H]3CC[C@@]21C | F
Clc1cccc(-n2nnnc2NCc2ccccc2Oc2ccccn2)c1Cl | F
CCc1cccc(CC)c1NC(=O)N1Cc2[nH]nc(NC(=O)c3ccc(N4CCN(C)CC4)cc3)c2C1 | T
